src = the MegaScale stability set (Tsuboyama et al. 2023)

B1: HEEH_KT_rd6_3632 (parent)
chain: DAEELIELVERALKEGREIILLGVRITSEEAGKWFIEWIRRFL

Variants of: B1
EXPERIMENT DESCRIPTION: folding stability dG (cDNA display proteolysis); higher = more stable
CONDITION: PBS, room temperature
MEASURED ENDPOINT: folding stability dG

These solved cases illustrate the format of a correct answer.
F35V 3.65 kcal/mol
W38V 2.96 kcal/mol
I20Q 3.12 kcal/mol
F35L 3.66 kcal/mol
D1K 4.04 kcal/mol

Please give folding stability dG for each item listed below.
1. K14N
2. I39T

1. 3.52 kcal/mol
2. 2.46 kcal/mol

Okay, here is my list. What is folding stability dG for each of these?
1. W34K
2. E3N
3. L8E
4. E30G
5. D1S
6. D1V

["3.81 kcal/mol", "3.87 kcal/mol", "3.29 kcal/mol", "3.64 kcal/mol", "3.98 kcal/mol", "4.07 kcal/mol"]
